- Tested on: MDA-MB-231 breast
- TEST SUMMARY: NCI tumour cell line growth inhibition, 48 h; in the data active = GI50 below about 0.43 µM; inactive = the rest
Choose the fitting class; nothing outside Yes = active, No = inactive is accepted.

Check out these entries, answers already filled in.
# input Test call for this molecule, please: CC(=O)c1cccc(-c2cccc(-c3ccn(CCN4CCOCC4)n3)c2)c1
# output No

# input Test call for this molecule, please: CCOC(=O)c1c2c(n(Cc3ccccc3)c1C)-c1nc(Cc3ccccc3)[nH]c1C(=O)C2=O
# output No

# input Test call for this molecule, please: COc1ccc(NC(=O)n2nc(/C=C\c3ccc(O)c(OC)c3)cc2/C=C\c2ccc(O)c(OC)c2)cc1
# output No

# input Test call for this molecule, please: COc1nc(C)cc2c(=O)n(-c3ccccc3)n(CC(O)CN3CCN(c4ccc(Cl)cc4)CC3)c(=O)c12 (centres undefined)
# output No

# input Test call for this molecule, please: C/C(=C(/c1ccc(O)cc1)c1ccc(Cl)cc1)c1ccccc1
# output No

# input Test call for this molecule, please: COC(=O)c1ccc2c(c1)C(=O)c1c-2n(CCCN)c(=O)c2cc(OC)c(OC)cc12
# output No

# input Test call for this molecule, please: CC12CC=CCC1CCC1C2CCC2(C)C(c3ccc(=O)oc3)CCC12O (centres undefined)
# output Yes

# input Test call for this molecule, please: O=C(N/N=C/c1ccc(Cl)cc1)c1[nH]c2ccc(Cl)cc2c1-c1ccccc1
# output Yes

Now consider the entry below.
# input Test call for this molecule, please: CC(C)(C)n1cc(-c2ccnc(NCCCNS(=O)(=O)c3ccc(Br)cc3)c2)c(-c2cccc(O)c2)n1
# output No

----------
- Test system: M14 melanoma
- TEST SUMMARY: NCI tumour cell line growth inhibition, 48 h; in the data active = GI50 below about 0.43 µM; inactive = the rest
Choose the fitting class; nothing outside yes = active, no = inactive is accepted.

Check out these entries, answers already filled in.
# input Test call for this compound, please: COc1ccc(/C=C\c2cc(OC)c(OC)c(OC)c2)c(NS(=O)(=O)c2ccc(Cl)cc2)c1O
# output yes

# input Test call for this compound, please: CCOC(=O)c1c2c(n(Cc3ccccc3)c1C)-c1nc(Cc3ccccc3)[nH]c1C(=O)C2=O
# output no

# input Test call for this compound, please: COC(=O)[C@H]1[C@H]2C[C@@H]3c4[nH]c5cc(OC)ccc5c4CCN3C[C@H]2C[C@@H](OC(=O)/C=C/c2cc(OC)c(OC)c(OC)c2)[C@@H]1OC
# output no

# input Test call for this compound, please: C/C(=C(/c1ccc(O)cc1)c1ccc(Cl)cc1)c1ccccc1
# output no

Now consider the entry below.
# input Test call for this compound, please: CSc1nsc(S/C=C\C(=O)c2ccc(C)cc2)n1
# output no

----------
- Tested on: UO-31 renal
- TEST SUMMARY: NCI tumour cell line growth inhibition, 48 h
// reported TGI per item

The reported UO-31 renal TGI of O=C(O)COc1cc(-c2ccccc2)nc2ccccc12 is > 100 µM

The reported UO-31 renal TGI of COC(=O)c1ccc(CN2C(=O)C(Cl)=C(Nc3ccc(OC)c(Cl)c3)C2=O)cc1 is > 50 µM

The reported UO-31 renal TGI of CCN1CCCn2c(=O)[nH]c3cc(Br)cc1c32 is > 100 µM

The reported UO-31 renal TGI of Nc1cc2[nH]cnc2c(=O)[nH]1 is > 300 µM

The reported UO-31 renal TGI of Nn1c(Sc2nc3ccccc3c(=O)n2N)nc2ccccc2c1=O is 3.26 µM

Next:
The reported UO-31 renal TGI of NNS(=O)(=O)c1cc(C(=O)O)cc(C(=O)O)c1 is > 100 µM
